# Experimental system: Retinoic acid receptor alpha [200-419] (Homo sapiens)
# Sequence (P10276 whole entry): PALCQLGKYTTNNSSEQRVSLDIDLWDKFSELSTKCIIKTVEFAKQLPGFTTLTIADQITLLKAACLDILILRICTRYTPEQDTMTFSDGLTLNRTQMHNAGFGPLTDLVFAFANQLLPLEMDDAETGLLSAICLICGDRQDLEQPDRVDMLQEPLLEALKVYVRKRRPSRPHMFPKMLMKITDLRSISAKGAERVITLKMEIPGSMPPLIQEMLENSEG
Assay endpoint: pKd
pKd here: minus log base 10 of the concentration, concentration in moles per litre.

**Query** Recorded pKd of `CC1(C)CCC(C)(C)c2cc(C(=O)/C=C/c3ccc(C(=O)O)cc3)ccc21` , please.
**Result** 9.40
